These entries and their values trace back to ChEMBL document CHEMBL3046163.

# System: Bemisia tabaci
# measurementNotes: Resistance ratio of LC50 for Bemisia tabaci biotype-Q Q1 (sweet potato whitefly) to LC50 for Bemisia tabaci LABS
# Format: functional
Please go through the items and note down their RatioLC50.
One number for each entry.

// worked examples, RatioLC50 included
{"columns": ["molecule", "RatioLC50"],
 "data": [
  ["CN1COCN(Cc2cnc(Cl)s2)/C1=N\\[N+](=O)[O-] [THIAMETHOXAM]", 3.7],
  ["C/C(=N\\C#N)N(C)Cc1ccc(Cl)nc1 [ACETAMIPRID]", 0.95],
  ["CC1=NNC(=O)N(/N=C/c2cccnc2)C1 [PYMETROZINE]", 5.8]
]}

stdin: Which value of RatioLC50 has been reported for O=[N+]([O-])/N=C1\NCCN1Cc1ccc(Cl)nc1 [IMIDACLOPRID] in the records?
stdout: 1.8

====

# System: Bemisia tabaci
# measurementNotes: Resistance ratio of LC50 for Bemisia tabaci biotype-B B3 (sweet potato whitefly) to LC50 for Bemisia tabaci LABS
# Format: functional
readoutKind: RatioLC50
Give bare numbers.

Recorded RatioLC50, per entry:
{"columns": ["mol", "RatioLC50"],
 "data": [
  ["CN1COCN(Cc2cnc(Cl)s2)/C1=N\\[N+](=O)[O-]", 150],
  ["CC1=NNC(=O)N(/N=C/c2cccnc2)C1", 1100],
  ["C/C(=N\\C#N)N(C)Cc1ccc(Cl)nc1", 30]
]}

stdin: Reported RatioLC50 for O=[N+]([O-])/N=C1\NCCN1Cc1ccc(Cl)nc1 : what is it?
stdout: 230

====

# System: Bemisia tabaci
# measurementNotes: Resistance ratio of LC50 for Bemisia tabaci biotype-B B4 (sweet potato whitefly) to LC50 for Bemisia tabaci LABS
# Format: functional
Would you kindly list RatioLC50 for each of these molecules?
One number for each entry.

{"columns": ["mol", "assaySystem", "RatioLC50"],
 "data": [
  ["CN1COCN(Cc2cnc(Cl)s2)/C1=N\\[N+](=O)[O-]", "Bemisia tabaci", 73],
  ["O=[N+]([O-])/N=C1\\NCCN1Cc1ccc(Cl)nc1", "Bemisia tabaci", 230],
  ["C/C(=N\\C#N)N(C)Cc1ccc(Cl)nc1", "Bemisia tabaci", 15]
]}

stdin: Missing value: RatioLC50, Bemisia tabaci, entry CC1=NNC(=O)N(/N=C/c2cccnc2)C1 . Fill in?
stdout: 520
